Reference source: PubChem BioAssay (NCI)

tested on: A549/ATCC NSCLC; assay: NCI-60 one-dose screen, 48 h; conditions: 10 µM
The panel holds about 83,000 compounds, 20% with a hit somewhere; the sample as a whole holds those more often. Active and inactive are the calls of the source. The calls were made as follows: active = growth percent below 10; inactive = the rest.
Just give me one of these, please: true (1) = active, false (0) = inactive

These recorded examples may help you get a feel for the data.
MOLECULE	ANSWER LABEL
Cc1ccc(C)c(S(=O)(=O)NC2c3ccccc3Oc3ccccc32)c1	false (0)
COc1cc(-c2cc(-c3cc(OC)c(OC)c(OC)c3)nc3nc(N)[nH]c(=O)c23)ccc1Oc1ccnc2cc(Cl)ccc12	false (0)
O=C1CC[C@@H](C(=O)N[C@H]2CSSC[C@@H](C(=O)NCCc3ccccc3)NC(=O)[C@H](Cc3ccccc3)NC(=O)[C@@H]3CCCN3C(=O)[C@@H]3CCCN3C2=O)N1	false (0)
C#CCNCCCN1C(=O)c2ccc3c4c(ccc(c24)C1=O)C(=O)N(CCCNCC#C)C3=O	true (1)
COc1ccc(C2=NNC(c3sc(Cl)nc3Cl)C2)cc1 (stereo not given)	false (0)

Request: Entry N/C(=N\O)c1cn(C2OC(CO)C(O)C2O)c2ncnc(N)c12 (stereo not given) : call = ?
Response: true (1)

Request: // repeat for C#Cc1ccc(-n2c(/C=C/c3cc(OC)c(OC)c(OC)c3)nc3ncccc3c2=O)cc1 and report
Response: false (0)

Request: // repeat for COc1ccc(C2C=C(c3ccc(OC)c(OC)c3)N=C3SC=CN32)c(Br)c1 (stereo not given) and report
Response: false (0)

Request: // repeat for C#CCNCCN1C(=O)c2ccc3c4c(ccc(c24)C1=O)C(=O)N(CCNCC#C)C3=O and report
Response: false (0)

Request: // repeat for CCOC(=O)c1c(C(F)(F)F)n([O-])c2ccc(OC)cc2[n+]1=O and report
Response: false (0)

Request: // repeat for C=CCc1cc(Nc2c3ccc(Cl)cc3nc3ccc(OC)cc23)cc(CN(CC)CC)c1O and report
Response: false (0)

Request: // repeat for COc1cc2nc(Sc3sc(N)nc3C)n(-c3ccc(Oc4ccccc4)cc3)c(=O)c2cc1OC and report
Response: false (0)

Request: // repeat for CNC(=O)c1cc(Oc2ccc(NC(=O)Nc3ccc(Cl)c(OC4CCCCC4)c3)c(F)c2)ccn1 and report
Response: false (0)

Request: // repeat for O=C(N/N=C\c1cc(Cl)ccc1O)c1ccncc1 and report
Response: false (0)

---

tested on: NCI-H322M lung; assay: NCI-60 one-dose screen, 48 h; settings: 10 µM
Compounds without any hit were thinned out: in the full panel of roughly 83,000, 20% have a hit. The source made the active and inactive calls. How the source made its calls: active means growth percent below 10; inactive means the rest.
Just give me one of these, please: active, inactive

These recorded examples may help you get a feel for the data.
COMPOUND	SUBJECT OF TEST	ANSWER LABEL
COc1ccc(-c2cn[nH]c2-c2cc(OC)c(OC)c(OC)c2)cc1	NCI-H322M lung	inactive
O=C(/C=C/c1ccc(Cl)cc1)c1ccc(Br)cc1	NCI-H322M lung	inactive
Cc1ccc2c3c(cccc13)-c1ccccc1C2=O	NCI-H322M lung	inactive
CCOC(=O)[C@@H]1[C@H](c2ccccc2)[C@H]([N+](=O)[O-])[C@H](c2cn(-c3ccccc3)nc2C)N1Cc1ccccc1	NCI-H322M lung	inactive
CCCCCC(=O)N1c2ccccc2NC2=C(C(=O)CC(c3ccc(OC)c(OC)c3)C2)C1c1ccc(C(F)(F)F)cc1 (stereo unspecified)	NCI-H322M lung	inactive
COc1cc(N=C2C(=O)N(Cc3ccccc3)c3ccccc32)cc(OC)c1OC	NCI-H322M lung	inactive
CCCCCCCC/C=C/CCCCCCCCC1=NCCN1CCO	NCI-H322M lung	inactive
O=C(Nc1cccc(-c2nc3ccccc3[nH]2)c1)c1cccc(NC(=O)c2ccco2)c1	NCI-H322M lung	inactive
COc1ccc(C2C=C(c3ccc(Cl)c(Cl)c3)N=C3SC(C)=CN32)cc1 (stereo unspecified)	NCI-H322M lung	inactive
COc1cc(/C=C/C(=O)c2cc(-c3ccc(C(F)(F)F)cc3)ccc2O)cc(OC)c1OC	NCI-H322M lung	inactive

Request: Entry OC(CNC1CCCC1)Cn1c2ccccc2c2ccccc21 (stereo unspecified) : call = ?
Response: inactive

Request: // repeat for COC(=O)CCCCCCCCC(C)c1ccc(C(C)=O)cc1 (stereo unspecified) and report
Response: inactive
